# assay_info: In vivo pharmacokinetics in male C57BL/6 mice
# Parameters: species or system mouse
# assay_context: male, C57BL/6, mouse, plasma, sc, 9.92 mg/kg, 9.92 mg/kg s.c., individual animals M16-M18, read-out: Apparent t1/2 (converted)
measured_property: half-life (h)
Write the value in h as a bare number.

Given the entry [2H]C([2H])(c1c[nH]c2ccccc12)[C@H]1CCCN1C([2H])([2H])[2H] [I-B-1] , report its measured half-life.
2.1

====

# assay_info: Liver microsomes stability with NADPH, rat
# assay_context: rat liver microsomes, with NADPH, 2 μM
Readings of Remaining Percentage (%) after 60 min Rat for the listed compounds

Use the examples below as a reference point.
>  <smiles_str>
[2H]C([2H])(c1c[nH]c2ccccc12)[C@H]1CCCN1

>  <observed_result>
38.89%

$$$$
>  <smiles_str>
[2H]C([2H])(c1c[nH]c2ccc(OC)cc12)[C@H]1CCCN1

>  <observed_result>
34.51%

$$$$
>  <smiles_str>
[2H]C([2H])([2H])Oc1ccc2[nH]cc(C[C@H]3CCCN3)c2c1

>  <observed_result>
92.44%

$$$$

Given the entry [2H]C([2H])([2H])Oc1ccc2[nH]cc(C[C@H]3CCCN3C([2H])([2H])[2H])c2c1 , report its measured Remaining Percentage (%) after 60 min Rat.
34.51%

Given the entry [2H]C([2H])(c1c[nH]c2ccc(OC)cc12)[C@H]1CCCN1C , report its measured Remaining Percentage (%) after 60 min Rat.
35.87%

====

# assay_info: In vivo pharmacokinetics in male C57BL/6 mice
# Parameters: species or system mouse
# assay_context: male, C57BL/6, mouse, plasma, sc, 9.92 mg/kg, 9.92 mg/kg s.c., Mean ± SD, read-out: Apparent t1/2 (converted)
# Protocol: Animals: Male C57BL/6 mice (25-30 g) from Charles River Labs were acclimatized for a minimum of 5 days prior to dosing. Body weights were recorded on the day of dosing. Food restriction: Animals dosed p.o. were deprived of food overnight and fed ˜2 h following dosing. Dosing: Formulations were administered intravenously (i.v.) via the tail vein or orally (p.o.) by gavage with disposable feeding needles. Sample collection: Serial blood samples was collected via tail snip. […]
measured_property: half-life

Given the entry [2H]C([2H])(c1c[nH]c2ccccc12)[C@H]1CCCN1C([2H])([2H])[2H] , report its measured half-life.
2.3 h

====

# assay_info: In vivo pharmacokinetics in male C57BL/6 mice
# Parameters: species or system mouse
# assay_context: male, C57BL/6, mouse, plasma, iv, 9.92 mg/kg, 9.92 mg/kg i.v., Mean ± SD, read-out: C0
measured_property: C0 (ng/mL)
Write the value in ng/mL as a bare number.

Given the entry [2H]C([2H])(c1c[nH]c2ccccc12)[C@H]1CCCN1C([2H])([2H])[2H] [I-B-1] , report its measured C0.
3910

====

# assay_info: In vivo pharmacokinetics in male C57BL/6 mice
# Parameters: species or system mouse
# assay_context: male, C57BL/6, mouse, plasma, sc, 9.92 mg/kg, 9.92 mg/kg s.c., Mean ± SD, read-out: MRT0-inf
measured_property: MRT inf

Given the entry [2H]C([2H])(c1c[nH]c2ccccc12)[C@H]1CCCN1C([2H])([2H])[2H] [I-B-1] , report its measured MRT inf.
2.6 h

====

# assay_info: In vivo pharmacokinetics in male C57BL/6 mice
# Design: species or system mouse
# assay_context: male, C57BL/6, mouse, plasma, sc, 9.92 mg/kg, 9.92 mg/kg s.c., individual animals M16-M18, read-out: AUC0-tlast
measured_property: AUC(0-t) (ng·h/mL)
Write the value in ng·h/mL as a bare number.

Given the entry [2H]C([2H])(c1c[nH]c2ccccc12)[C@H]1CCCN1C([2H])([2H])[2H] , report its measured AUC(0-t).
2880

====

# assay_info: In vivo pharmacokinetics in male C57BL/6 mice
# Parameters: species or system mouse
# assay_context: male, C57BL/6, mouse, plasma, iv, 9.92 mg/kg, 9.92 mg/kg i.v., individual animals M10-M12
measured_property: clearance (mL/min/kg)
Write the value in mL/min/kg as a bare number.

Given the entry [2H]C([2H])(c1c[nH]c2ccccc12)[C@H]1CCCN1C([2H])([2H])[2H] , report its measured clearance.
43

====

# assay_info: Liver microsomes stability with NADPH, mouse
# assay_context: male, mouse, microsomes
Readings of microsomal CLint at 2 μM for the listed compounds
Write the value in µL/min/mg as a bare number.

Use the examples below as a reference point.
>  <compound>
[2H]C([2H])([2H])Oc1ccc2[nH]cc(C[C@H]3CCCN3)c2c1 [I-B-14]

>  <microsomal CLint at 2 μM [µL/min/mg]>
10.9

$$$$
>  <compound>
[2H]C([2H])(c1c[nH]c2ccccc12)[C@H]1CCCN1C [I-B-2]

>  <microsomal CLint at 2 μM [µL/min/mg]>
47.1

$$$$
>  <compound>
COc1ccc2[nH]cc(CCN(C)C)c2c1 [Compound 5-MeO-DMT, 5-methoxy-N,N-dimethyltryptamine, reference compound]

>  <microsomal CLint at 2 μM [µL/min/mg]>
27.4

$$$$
>  <compound>
[2H]C([2H])(c1c[nH]c2ccccc12)[C@H]1CCCN1 [I-B-8]

>  <microsomal CLint at 2 μM [µL/min/mg]>
18.9

$$$$
>  <compound>
CN(C)CCc1c[nH]c2ccccc12 [DMT, N,N-dimethyltryptamine, reference compound]

>  <microsomal CLint at 2 μM [µL/min/mg]>
27.4

$$$$

Given the entry [2H]C([2H])(c1c[nH]c2ccc(OC)cc12)[C@H]1CCCN1 [I-B-16] , report its measured microsomal CLint at 2 μM.
40.6

====

Readings of half-life at 2 μM for the listed compounds
# assay_info: Liver microsomes stability with NADPH, rat
# assay_context: rat, microsomes
Write the value in min as a bare number.

Use the examples below as a reference point.
>  <compound>
[2H]C([2H])([2H])Oc1ccc2[nH]cc(C[C@H]3CCCN3C([2H])([2H])[2H])c2c1

>  <half-life at 2 μM, min>
39.1

$$$$
>  <compound>
[2H]C([2H])(c1c[nH]c2ccc(OC)cc12)[C@H]1CCCN1

>  <half-life at 2 μM, min>
39.1

$$$$
>  <compound>
COc1ccc2[nH]cc(CCN(C)C)c2c1 [Compound 5-MeO-DMT, 5-methoxy-N,N-dimethyltryptamine, reference compound]

>  <half-life at 2 μM, min>
22.7

$$$$
>  <compound>
[2H]C([2H])([2H])Oc1ccc2[nH]cc(C([2H])([2H])[C@H]3CCCN3C([2H])([2H])[2H])c2c1

>  <half-life at 2 μM, min>
40.6

$$$$

Given the entry [2H]C([2H])(c1c[nH]c2ccc(OC)cc12)[C@H]1CCCN1C , report its measured half-life at 2 μM.
40.6

====

# assay_info: In vivo pharmacokinetics in male C57BL/6 mice
# Design: species or system mouse
# assay_context: male, C57BL/6, mouse, plasma, po, 9.92 mg/kg, 9.92 mg/kg p.o., Mean ± SD, read-out: AUC0-tlast
measured_property: AUC(0-t) (ng·h/mL)
Write the value in ng·h/mL as a bare number.

Given the entry [2H]C([2H])(c1c[nH]c2ccccc12)[C@H]1CCCN1C([2H])([2H])[2H] , report its measured AUC(0-t).
2170

====

pIC50: −log10 of the molar value.
Reported pIC50 values, human 5-HT2A (Homo sapiens, UniProt P28223).

>  <compound>
[2H]C([2H])([2H])Oc1ccc2[nH]cc(C([2H])([2H])[C@H]3CCCN3)c2c1

>  <observed_result>
> 6.30

$$$$
>  <compound>
[2H]C([2H])([2H])Oc1ccc2[nH]cc(C[C@H]3CCCN3)c2c1

>  <observed_result>
> 6.30

$$$$
>  <compound>
[2H]C([2H])(c1c[nH]c2ccccc12)[C@H]1CCCN1C([2H])([2H])[2H]

>  <observed_result>
> 6.30

$$$$

Entry CN(C)CCc1c[nH]c2ccccc12 [DMT, N,N-dimethyltryptamine, reference compound] , system human 5-HT2A (Homo sapiens, UniProt P28223): what pIC50 was measured?
5.30 to 6.30

Entry [2H]C([2H])([2H])Oc1ccc2[nH]cc(C([2H])([2H])[C@H]3CCCN3C([2H])([2H])[2H])c2c1 , system human 5-HT2A (Homo sapiens, UniProt P28223): what pIC50 was measured?
> 6.30

Entry [2H]C([2H])(c1c[nH]c2ccccc12)[C@H]1CCCN1C , system human 5-HT2A (Homo sapiens, UniProt P28223): what pIC50 was measured?
> 6.30

Entry [2H]C([2H])([2H])N1CCC[C@@H]1Cc1c[nH]c2ccc(OC)cc12 , system human 5-HT2A (Homo sapiens, UniProt P28223): what pIC50 was measured?
> 6.30

Entry [2H]C([2H])(c1c[nH]c2ccccc12)[C@H]1CCCN1 , system human 5-HT2A (Homo sapiens, UniProt P28223): what pIC50 was measured?
5.30 to 6.30
